Target: Human MUC1 (full length), on cells (human, UniProt P15941 24-1255)
Sequence (P15941 24-1255 limits assumed): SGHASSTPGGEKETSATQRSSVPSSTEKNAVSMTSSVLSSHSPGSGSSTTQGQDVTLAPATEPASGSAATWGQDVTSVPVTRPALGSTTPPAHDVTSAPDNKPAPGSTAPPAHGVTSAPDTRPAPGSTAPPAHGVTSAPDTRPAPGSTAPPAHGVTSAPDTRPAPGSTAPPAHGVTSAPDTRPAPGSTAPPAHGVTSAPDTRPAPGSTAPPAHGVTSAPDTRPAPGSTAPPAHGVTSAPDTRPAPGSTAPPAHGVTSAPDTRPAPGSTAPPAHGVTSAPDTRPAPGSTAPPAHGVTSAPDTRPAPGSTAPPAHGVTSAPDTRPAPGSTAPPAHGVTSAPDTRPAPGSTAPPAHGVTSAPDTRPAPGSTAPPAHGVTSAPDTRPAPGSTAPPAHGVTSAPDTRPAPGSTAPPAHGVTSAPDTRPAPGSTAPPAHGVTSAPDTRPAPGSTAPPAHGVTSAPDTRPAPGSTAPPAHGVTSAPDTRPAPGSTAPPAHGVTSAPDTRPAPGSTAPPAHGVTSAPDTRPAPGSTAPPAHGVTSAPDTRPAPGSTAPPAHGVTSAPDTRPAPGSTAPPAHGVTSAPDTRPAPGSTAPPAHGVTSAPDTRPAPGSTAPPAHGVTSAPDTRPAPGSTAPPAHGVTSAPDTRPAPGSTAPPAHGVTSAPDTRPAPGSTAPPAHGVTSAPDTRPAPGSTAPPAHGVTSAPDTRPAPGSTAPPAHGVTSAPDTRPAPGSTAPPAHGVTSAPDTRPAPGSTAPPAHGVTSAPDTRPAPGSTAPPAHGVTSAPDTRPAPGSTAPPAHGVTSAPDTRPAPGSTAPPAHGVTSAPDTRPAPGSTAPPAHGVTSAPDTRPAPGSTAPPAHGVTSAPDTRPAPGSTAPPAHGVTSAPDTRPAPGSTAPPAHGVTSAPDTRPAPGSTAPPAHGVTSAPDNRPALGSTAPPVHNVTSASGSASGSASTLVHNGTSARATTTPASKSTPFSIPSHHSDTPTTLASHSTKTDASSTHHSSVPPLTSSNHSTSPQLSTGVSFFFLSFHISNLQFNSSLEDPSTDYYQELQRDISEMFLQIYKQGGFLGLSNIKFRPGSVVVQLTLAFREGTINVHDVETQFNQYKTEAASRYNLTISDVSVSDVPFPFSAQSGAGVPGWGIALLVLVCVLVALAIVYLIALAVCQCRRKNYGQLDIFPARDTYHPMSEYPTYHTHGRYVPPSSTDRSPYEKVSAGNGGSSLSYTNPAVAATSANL
Assay: cell-based or functional assay
experimental-readout: Cell lysis activity Emax, T-47D/nanoluc in human whole blood (%)
// return numeric value only (unit: %, not printed)

Problem: What does the data say about its Cell lysis activity Emax, T-47D/nanoluc in human whole blood? Entry: Clivatuzumab-AF (antibody, IgG1, V domains shown, afucosylated Fc glycan (-AF)) VH: QVQLQQSGAEVKKPGASVKVSCEASGYTFPSYVLHWVKQAPGQGLEWIGYINPYNDGTQYNEKFKGKATLTRDTSINTAYMELSRLRSDDTAVYYCARGFGGSYGFAYWGQGTLVTVSS VL: DIQLTQSPSSLSASVGDRVTMTCSASSSVSSSYLYWYQQKPGKAPKLWIYSTSNLASGVPARFSGSGSGTDFTLTISSLQPEDSASYFCHQWNRYPYTFGGGTRLEIK
Solution: 2.31
